- SUBJECT_OF_TEST: Cytochrome P450 3A4 (Homo sapiens) (UniProt P08684)
- Sequence (P08684 whole entry, looked up): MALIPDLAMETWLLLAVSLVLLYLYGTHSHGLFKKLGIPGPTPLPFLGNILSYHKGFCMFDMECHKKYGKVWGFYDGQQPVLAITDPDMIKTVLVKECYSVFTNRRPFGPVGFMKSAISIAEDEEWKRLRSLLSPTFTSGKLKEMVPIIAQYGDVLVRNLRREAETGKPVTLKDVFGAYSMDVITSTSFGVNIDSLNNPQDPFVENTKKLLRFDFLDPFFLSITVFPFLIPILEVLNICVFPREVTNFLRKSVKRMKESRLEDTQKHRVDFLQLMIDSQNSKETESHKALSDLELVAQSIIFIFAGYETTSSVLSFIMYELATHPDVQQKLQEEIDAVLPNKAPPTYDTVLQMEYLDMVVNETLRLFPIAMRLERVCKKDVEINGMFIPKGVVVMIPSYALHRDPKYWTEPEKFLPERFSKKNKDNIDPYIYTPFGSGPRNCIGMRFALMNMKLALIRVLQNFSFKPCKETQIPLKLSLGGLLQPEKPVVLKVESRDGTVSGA
- PROTOCOL: qHTS Assay for Inhibitors and Substrates of Cytochrome P450 3A4 (AID 884); further: nearly all actives have a fitted effect of over 50% in size
- TEST_CONTEXT: recombinant CYP3A4, Luciferin-PPXE luminescence; series mostly up to 57.1 µM
Results filed as inconclusive are left out. Calls of active or inactive are those of the source. The call rests on the fitted dose curve; in most records, active means well fitted inhibition curve with a large enough effect; inconclusive means small, poorly fitted or top-dose-only effect; inactive means no such curve, though single readings can be large or run the other way.
Your answer must be one of the following: active, inactive

Examples with answers:
• NNC(N)=O = inactive
• O=Cc1ccco1 = inactive
• CC(C)(C)c1cc(C=C(C#N)C#N)cc(C(C)(C)C)c1O = active
• [N-]=[N+]=CC(=O)OCC(N)C(=O)O (stereo not drawn) = inactive
• C=CCC1(C(C)CCC)C(=O)N=C(S)NC1=O (stereo not drawn) = active
• CCCCCl = inactive
• CCCCCCCCOC(=O)c1ccccc1C(=O)OCCCCCCCC = inactive

Consider now this further compound.
Data request: Hello, I am checking results. What call was entered for `O=C1CCO1` ?
Data returned: inactive
